Entries and their LD50 values follow.
# testMethodNotes: in vivo
# conditions: ip
quantity: LD50

>>> reportedvalue("NC(=O)c1ccccc1N(CCN1CCC(O)(c2ccccc2)CC1)Cc1ccccc1 [Example XXVII (Step 4 Title Compound)]")
"60 mg/kg"
>>> reportedvalue("NC(=O)c1ccccc1NCCN1CCN(c2ccccc2)CC1 [Example I]")
"800 mg/kg"
>>> reportedvalue("CC(C)=CCN1CCC2(C)c3cc(O)ccc3CC1C2C (stereo not drawn) [Pentazocine, reference compound]")
"140 mg/kg"
>>> reportedvalue("CCC(=O)OC1(c2ccccc2)CCN(CCN(Cc2ccccc2)c2ccccc2C(N)=O)CC1 [Example XXVII (Step 5 Title Compound)]")
"100 mg/kg"
>>> reportedvalue("COc1ccc(NCCN2CCN(c3ccccc3)CC2)c(C(N)=O)c1 [XVIII]")
"300 mg/kg"
>>> reportedvalue("Cl.NC(=O)c1ccccc1NCCN1CCN(CCc2ccccc2)CC1 [XVII]")
"70 mg/kg"
>>> reportedvalue("CS(=O)(=O)O.O=C1NC(c2ccccc2)N(CCN2CCC(O)(c3ccccc3)CC2)c2ccccc21 (stereo not drawn) [Example XXVI]")
"200 mg/kg"
>>> reportedvalue("Cl.Cl.Cl.NC(=O)c1ccccc1NCCN1CCN(Cc2ccccc2)CC1 [Example XX]")
"100 mg/kg"
>>> reportedvalue("NC(=O)c1ccccc1NCCN1CCC(c2ccccc2)CC1 [XXX]")
"200 mg/kg"
>>> reportedvalue("CCOC(=O)C1(c2ccccc2)CCN(C)CC1 [Merperidine, reference compound]")
"130 mg/kg"
>>> reportedvalue("COC(=O)c1ccccc1NCCN1CCN(c2ccccc2)CC1 [XII]")
"300 mg/kg"
>>> reportedvalue("Cl.NC(=O)c1cc(N)ccc1NCCN1CCN(c2ccccc2)CC1 [XXI]")
"200 mg/kg"
>>> reportedvalue("CCOc1ccc(NCCN2CCN(c3ccccc3)CC2)c(C(N)=O)c1 [XXIV]")
"300 mg/kg"
>>> reportedvalue("NC(=O)c1ccccc1NCCN1CCCCC1 [XXXI]")
"40 mg/kg"
>>> reportedvalue("CC(CN1CCN(c2ccccc2)CC1)Nc1ccccc1C(N)=O (stereo not drawn) [XXXII]")
"300 mg/kg"
>>> reportedvalue("COc1ccc(N2CCN(CCNc3ccccc3C(N)=O)CC2)cc1 [VII]")
"300 mg/kg"
>>> reportedvalue("CC(CNc1ccccc1C(N)=O)N1CCN(c2ccccc2)CC1.Cl (stereo not drawn) [XIV]")
"300 mg/kg"
>>> reportedvalue("CNC(=O)c1ccccc1NCCN1CCN(c2ccccc2)CC1 [XV]")
"200 mg/kg"
>>> reportedvalue("Cl.O=C(c1ccccc1NCCN1CCN(c2ccccc2)CC1)N1CCOCC1 [XVI]")
"250 mg/kg"
>>> reportedvalue("O=C(Nc1ccccc1)c1ccccc1NCCN1CCN(c2ccccc2)CC1 [XXII]")
"300 mg/kg"
>>> reportedvalue("CCC(=O)OC1(c2ccccc2)CCN(CCNc2ccccc2C(N)=O)CC1 [Example XXVII]")
"60 mg/kg"

Source of measurements: patent US4060526A
